PARAMETER MEASURED: melting point

Sample answers from the record:
1) CC(C)(O)C(=O)Nc1ccc(S(=O)(=O)c2ccccc2)cc1F : 156 °C
2) Cc1ccccc1C(=O)Nc1ccc(C(=O)N2CCCC(CO)c3ccccc32)cc1 (stereo not given) : 202 to 206 °C
3) CC1CCN(C(=O)C2Cc3ccccc3N2c2ccc(=O)n(C)n2)C1 (stereo not given) : 150 to 154 °C
4) COC(=O)c1ccc(CN(C(=O)OC(C)(C)C)c2ccc(C3CCCCC3)cc2)cc1 : 99.5 to 101 °C

get_value(item= CCOC(=O)N1CCc2nc3cccc(Cl)c3c(C)c2CC1 , readout=melting point) returns 138 °C

get_value(item= O=C(Nc1ccc(-n2nc(-c3cncc(Br)c3)cc2OC(F)F)cc1)c1ccncc1F , readout=melting point) returns 179 to 180 °C

get_value(item= Cc1cc(C)n(-c2nc(Nc3ccccc3Cl)c3ccccc3n2)n1 , readout=melting point) returns 210 to 217 °C

get_value(item= Oc1ccc(-c2nc3ccccc3[nH]2)cc1 , readout=melting point) returns 286 to 288 °C

get_value(item= N#CCc1cccc(C(=O)c2ccccc2)c1N , readout=melting point) returns 138 to 139 °C

get_value(item= O=C1NCCOc2c1sc1ccccc21 , readout=melting point) returns 244 to 245 °C

###

Measured melting point of individual entries

1. Cc1coc2ncnc(NCCc3ccc(Cl)cc3)c12 : 140 °C
2. O=S1(=O)NCN(C2CCCCC2)c2ccc(Cl)cc21 : 233 to 235 °C

get_value(item= CCCCc1nc2c(N)nc3ccccc3c2n1CCCCNC(=O)Nc1ccccc1 , readout=melting point) returns 185 to 187 °C

get_value(item= O=C1C(=Cc2c[nH]c3ccccc23)N(Cc2ccccc2)C(=O)N1Cc1cc(C(F)(F)F)cc(C(F)(F)F)c1 , readout=melting point) returns 154 to 156 °C

get_value(item= O=C(O)c1cn(CCO)c2cc(Cl)c(F)cc2c1=O , readout=melting point) returns 266 °C

###

Measured melting point of individual entries

1. CC(C)C[C@H](NC(=O)c1ccc2c(c1)Nc1ccccc1S2)C(=O)N[C@H]1CCOC1OC(=O)CC(C)(C)C (stereo not given in full) : 111 to 113 °C
2. O=[N+]([O-])c1ccccc1S : 40 to 42 °C
3. CCCCCC#CCC(Cc1cccnc1)(C(=O)NO)S(=O)(=O)c1ccc(OC)cc1 (stereo not given) : 146 °C
4. CCOC(=O)c1cc2ccccc2n1C : 62 to 64 °C
5. Cc1cc(-n2ccnc2)c2cccc(OCc3c(Cl)ccc(S(=O)(=O)N4CCC[C@H]4C(=O)NCc4ccccn4)c3Cl)c2n1 : 102 °C

get_value(item= CC(C)(C)OC(=O)NCC(=O)Nc1ccccc1OCc1ccccc1 , readout=melting point) returns 80 to 82 °C

get_value(item= CC(=O)c1cc(Br)cc(Cc2cc(Cl)cc(Cc3cc(Br)ccc3O)c2O)c1O , readout=melting point) returns 185 to 186 °C

get_value(item= OC[C@@H](O)CNCc1ccccc1 , readout=melting point) returns 63 °C

get_value(item= CC(C)c1nc(C(C)C)c(CO)c(-c2ccc(F)cc2)c1/C=C/c1ccccc1 , readout=melting point) returns 107 to 110 °C

get_value(item= COc1ccc(Cl)cc1-n1c(-c2cc(C(F)(F)F)cc(C(F)(F)F)c2)n[nH]c1=O , readout=melting point) returns 206 to 207 °C
